tgt: T1, human CD137-Fc (human, biotin-labeled)
T1 construct: if 90 already holds the Fc, drop the second piece; also called biotin-labeled human CD137 fused to human IgG1 Fc fragment; biotin-human CD137-Fc; not shown: human IgG1 Fc fragment
measurement_notes: bead ELISA on biotin-human CD137-Fc, 0 pmol free CD3e peptide
Decide using ELISA signal: a value greater than or equal to 30000 is MET, a smaller one is NOT MET.

Record Du115/DUL008 (antibody, V domains shown) VH: QVQLVESGGGLVQPGRSLRLSCAASGFTFSNAWMHWVRQAPGKGLEWVAQIKDKANSYNTYYAPSVKGRFTISRDDSKNSIYLQMNSLKTEDTAVYYCRYVHYGSSYGFLFAGYGVDAWGQGTTVTVSS VL: DIVMTQSPLSLPVTPGEPASISCQSSEELLHANRKTYLHWYQQKPGQAPRLLIYKVQNRFSGVPDRFSGSGSGTDFTLKISRVEAEDVGVYYCAQGTATPFTFGQGTKLEIK ; criterion: ELISA signal no lower than 30000. Met? MET

Source of measurements: patent US20210388087A1
